Target: Nitric oxide synthase, inducible (Homo sapiens, UniProt P35228)
Sequence (P35228 whole entry, the tested form may be a part): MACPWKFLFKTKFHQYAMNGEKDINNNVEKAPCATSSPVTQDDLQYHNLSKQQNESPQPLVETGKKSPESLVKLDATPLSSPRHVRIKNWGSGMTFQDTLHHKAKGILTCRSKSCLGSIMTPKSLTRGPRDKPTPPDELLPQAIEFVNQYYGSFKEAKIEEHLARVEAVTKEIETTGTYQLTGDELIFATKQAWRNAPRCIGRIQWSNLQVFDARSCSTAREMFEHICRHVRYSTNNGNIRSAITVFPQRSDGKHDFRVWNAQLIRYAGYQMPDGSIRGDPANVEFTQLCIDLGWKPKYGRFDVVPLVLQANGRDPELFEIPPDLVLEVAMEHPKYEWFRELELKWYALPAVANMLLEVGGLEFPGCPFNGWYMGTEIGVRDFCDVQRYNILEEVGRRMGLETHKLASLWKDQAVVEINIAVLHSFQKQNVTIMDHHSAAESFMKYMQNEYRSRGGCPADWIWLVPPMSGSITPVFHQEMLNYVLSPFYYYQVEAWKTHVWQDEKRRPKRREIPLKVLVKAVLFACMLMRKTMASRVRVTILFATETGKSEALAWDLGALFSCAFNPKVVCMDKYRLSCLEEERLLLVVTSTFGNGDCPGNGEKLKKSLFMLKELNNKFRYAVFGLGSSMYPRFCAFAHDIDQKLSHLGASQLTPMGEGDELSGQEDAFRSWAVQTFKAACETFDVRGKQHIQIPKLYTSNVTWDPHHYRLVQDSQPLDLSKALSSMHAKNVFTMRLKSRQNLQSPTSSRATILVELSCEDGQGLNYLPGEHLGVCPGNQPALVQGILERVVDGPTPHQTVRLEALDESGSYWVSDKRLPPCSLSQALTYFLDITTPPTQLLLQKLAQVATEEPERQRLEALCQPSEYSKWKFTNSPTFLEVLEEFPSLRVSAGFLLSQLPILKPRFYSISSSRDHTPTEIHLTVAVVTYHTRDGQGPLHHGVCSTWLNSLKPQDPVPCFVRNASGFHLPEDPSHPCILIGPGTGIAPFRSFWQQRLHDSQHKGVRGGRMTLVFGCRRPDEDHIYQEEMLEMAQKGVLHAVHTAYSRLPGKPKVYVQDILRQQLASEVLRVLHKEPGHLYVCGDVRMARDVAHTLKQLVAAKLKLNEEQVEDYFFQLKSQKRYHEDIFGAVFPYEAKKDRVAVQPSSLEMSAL
Recorded pKi by entry
// pKi: -log10(molar conc.)

Item smiles	Parameter	Measured number
N/C(=N/CCC[C@H](N)C(=O)O)N(N)CC(F)(F)F	pKi	4.98

Kindly consider the entry below.
Data request: Form field - read-out: pKi; system: Nitric oxide synthase, inducible (Homo sapiens, UniProt P35228); submitted item: N/N=C(\N)NCCC[C@H](N)C(=O)O
Data returned: 5.66

====

Target: Nitric oxide synthase, inducible (Homo sapiens)
Assay: Binding affinity to truncated iNOS construct (1-490) by spectral assay
One threshold, 30 µM, splits the recorded Kd values: lower ones are Condition met, equal or higher ones are Condition not met.

Data request: Dear reviewer, please state whether N=C(N)NCCC[C@H](N)C(=O)O [ARGININE] has Kd strictly beneath 30 µM.
Data returned: Condition met

Data request: Dear reviewer, please state whether N/C(=N/CCC[C@H](N)C(=O)O)N(N)CC(F)(F)F has Kd strictly beneath 30 µM.
Data returned: Condition not met

Data request: Dear reviewer, please state whether CN(N)/C(N)=N\CCC[C@H](N)C(=O)O has Kd strictly beneath 30 µM.
Data returned: Condition met

Data request: Dear reviewer, please state whether N/N=C(\N)NCCC[C@H](N)C(=O)O has Kd strictly beneath 30 µM.
Data returned: Condition met

Data request: Dear reviewer, please state whether CN/N=C(\N)NCCC[C@H](N)C(=O)O has Kd strictly beneath 30 µM.
Data returned: Condition met
